Source of measurements: paper PMC9549831

Test: clinical
Conditions: human, in vivo, 50 mg
Property: Cmax (ng/mL)

>>> print(df.to_string())
                                smiles_repr  measured_number
0  CCCc1nn(C)c2c(=O)[nH]c(-c3cc(S(=O)(=O)N4CCN(C)CC4)ccc3OCC)nc12              302

----------
Experiment: clinical
Conditions: human, in vivo, 50 mg
Property: Tmax (min)

>>> df
                                smiles_repr  property  measured_number
0  CCCc1nn(C)c2c(=O)[nH]c(-c3cc(S(=O)(=O)N4CCN(C)CC4)ccc3OCC)nc12      Tmax             58.6

----------
Assay: clinical
Settings: human, in vivo, 5 mg
Property: AUC(0-inf) (µg·h/mL)

>>> df
                                   molecule  measured_number
0  N#C[C@@H]1C[C@@H]2C[C@@H]2N1C(=O)[C@@H](N)C12CC3CC(CC(O)(C3)C1)C2 [saxagliptin]            0.113

----------
Assay: clinical
Settings: human, in vivo, 50 mg
Property: AUC(0-t)

                                   compound  property       result
0  CCCc1nn(C)c2c(=O)[nH]c(-c3cc(S(=O)(=O)N4CCN(C)CC4)ccc3OCC)nc12 [sildenafil]  AUC(0-t)  977 ng·h/mL

----------
Experiment: clinical
Settings: human, in vivo, 5 mg
Property: Tmax (h)

                                smiles_repr  property  measured_number
0  N#C[C@@H]1C[C@@H]2C[C@@H]2N1C(=O)[C@@H](N)C12CC3CC(CC(O)(C3)C1)C2      Tmax             1.24
